biological target: SARS-CoV-2 Main Protease (SARS-CoV-2); conditions: 50.0 µM
Threshold check on inhibition: at or above 10% gives YES, strictly below gives NO.

Prompt: inhibition >= 10% for "O=C(c1cc(=O)[nH]c2cc(F)ccc12)N1CCN(S(=O)(=O)c2ccccc2)CC1" ?
Response: YES

Prompt: inhibition >= 10% for NC(=O)C1CCN(c2nnc(C3CCC(=O)N3)n2CCc2cc(F)cc(F)c2)CC1 (stereo not drawn) ?
Response: NO

Prompt: inhibition >= 10% for "CCc1ccccc1N(CC)C(=O)Nc1cn(C)c(=O)c2ccccc12" ?
Response: YES

Prompt: inhibition >= 10% for "O=[N+]([O-])c1cnc(Sc2nnc(-c3ccc(Cl)cc3)o2)s1" ?
Response: YES

Prompt: inhibition >= 10% for "O=C(NCc1noc2ccccc12)c1ccccc1OCC1CC1" ?
Response: YES

Prompt: inhibition >= 10% for "COc1ccc2nc(C)cc(C(=O)NN)c2c1" ?
Response: YES

Prompt: inhibition >= 10% for "O=C(Cc1cccnc1Cl)Nc1cccc(OCCc2ccccc2)c1" ?
Response: NO

Prompt: inhibition >= 10% for "Cc1ccncc1NC(=O)Cc1ccc(S(N)(=O)=O)cc1" ?
Response: YES

Prompt: inhibition >= 10% for "C#Cc1ccc(CNC(=O)N2CCOCC2)cc1" ?
Response: NO

Prompt: inhibition >= 10% for "Cc1cccc(COC(=O)c2cccc3c2NC(=O)C3=O)c1" ?
Response: NO

Prompt: inhibition >= 10% for C=CC(=O)N(c1cc(C(C)(C)C)on1)C(C(=O)Nc1c(C)cccc1CC)c1cccnc1 (stereo not drawn) ?
Response: YES

Prompt: inhibition >= 10% for O=C(Nc1nncn1C1CC1)C1CCOc2ccc(Cl)cc21 (stereo not drawn) ?
Response: YES

Prompt: inhibition >= 10% for "Cc1ccc(-c2cc(C(F)(F)F)nn2-c2ccc(S(N)(=O)=O)cc2)cc1" ?
Response: YES

Prompt: inhibition >= 10% for "COc1ccc(CN2C(=O)C(=O)c3cc(Br)cc(C)c32)cc1OC" ?
Response: NO

Prompt: inhibition >= 10% for "CC(C)(C)NC(=O)CN1C(=O)C(=O)c2cccc(Br)c21" ?
Response: NO

Prompt: inhibition >= 10% for "Cc1ccncc1NC(=O)c1ccc(NC(=O)Nc2cccnc2)cc1" ?
Response: NO

Prompt: inhibition >= 10% for "CCOC(=O)N1CCC(NC(=O)Nc2cn(C)c(=O)c3ccccc23)CC1" ?
Response: NO

Prompt: inhibition >= 10% for "Cc1cccc(NC(=O)CN2C(=O)C(=O)c3ccccc32)c1" ?
Response: NO

Prompt: inhibition >= 10% for O=C(NCC(O)Cn1ccnn1)c1ccccc1OC1CCC1 (stereo not drawn) ?
Response: NO

Prompt: inhibition >= 10% for "O=C(Nc1nnc(-c2ccccn2)o1)C1CCN(S(=O)(=O)c2ccc(F)cc2)CC1" ?
Response: NO

Prompt: inhibition >= 10% for "O=C(Cc1cccc(Cl)c1)Nn1cnc2ccccc2c1=O" ?
Response: YES

Prompt: inhibition >= 10% for "CCC(C)(C)CCN(Cc1ccsc1)C(=O)Cn1nnc2ccccc21" ?
Response: YES

----------
Answer each item with its documented relative solubility at 20 uM.
conditions: 20.0 µM
The reply should be a number, written without any unit.

Given item "O=C(Nc1nnc(-c2ccccn2)o1)C1CCN(S(=O)(=O)c2ccc(F)cc2)CC1" , the value recorded as its relative solubility at 20 uM is 0.95

Given item C=CC(=O)N(C(C(=O)NC(C)(C)C)c1cccnc1)[C@@H]1C[C@@H]1c1ccccc1 (stereo in doubt) , the value recorded as its relative solubility at 20 uM is 0.97

Given item "O=C(Nc1ccccc1Cl)c1cc(Cl)ccc1O" , the value recorded as its relative solubility at 20 uM is 0.91

Given item "CC(=O)NCCc1c[nH]c2c(CN3CCN(C(=O)CCl)CC3)cccc12" , the value recorded as its relative solubility at 20 uM is 0.95

Given item "Cn1cc(S(N)(=O)=O)cc1CC(=O)Nc1cccc(C(=O)NCc2ccccn2)c1" , the value recorded as its relative solubility at 20 uM is 1

Given item C=CC(=O)N(c1ccc2ncsc2c1)C(C(=O)Nc1ccc(OC)cc1)c1cccnc1 (stereo unspecified) , the value recorded as its relative solubility at 20 uM is 0.92

Given item Cc1ccncc1NC(=O)CC(C)C(C)C (stereo unspecified) , the value recorded as its relative solubility at 20 uM is 1

Given item "Cc1ccncc1NC(=O)Cc1cccc(Br)c1" , the value recorded as its relative solubility at 20 uM is 1.01

Given item "COc1c(NC(=O)Cc2cccc(Cl)c2Cl)c(C)nn1C" , the value recorded as its relative solubility at 20 uM is 1

Given item C=CC(=O)N(c1ccc(C(F)(F)F)cc1)C(C(=O)NCCc1cccc(F)c1)c1cccnc1 (stereo unspecified) , the value recorded as its relative solubility at 20 uM is 0.99

Given item "CNCc1c[nH]c2ccc(F)cc12" , the value recorded as its relative solubility at 20 uM is 0.99

----------
settings: 20.0 µM
Answer each item with its documented relative solubility at 20 uM.
The reply should be a number, written without any unit.

Given item "O=C(CCl)N1CCC(C(=O)N2CCCCC2)CC1" , the value recorded as its relative solubility at 20 uM is 1

Given item "O=C(CC(=O)N1CCOCC1)NCc1ccccc1" , the value recorded as its relative solubility at 20 uM is 0.99

Given item CC(C)CCNC(=O)C(CC(C)C)NC(=O)C1OC1C(=O)O (stereo not given) , the value recorded as its relative solubility at 20 uM is 1

Given item "O=C(Cc1c[nH]c2ncccc12)Nc1cccc(Cl)c1" , the value recorded as its relative solubility at 20 uM is 0.99

Given item "Cc1cccc(NC2CCN(c3ccc(S(N)(=O)=O)cc3)CC2)c1" , the value recorded as its relative solubility at 20 uM is 0.96

Given item C=CC(=O)N(c1ccc(C(C)(C)C)cc1)C(C(=O)NC1CC(C(=O)OC)C1)c1cccnc1 (stereo not given) , the value recorded as its relative solubility at 20 uM is 0.99

Given item C=CC(=O)N(c1ccc(C(C)(C)C)cc1)C(C(=O)NC(C)(C)C)c1cncc(OC)c1C (stereo not given) , the value recorded as its relative solubility at 20 uM is 0.99

Given item CC(NC(=O)Nc1cccc(N2CCCCC2=O)c1)c1ccn[nH]1 (stereo not given) , the value recorded as its relative solubility at 20 uM is 1

Given item "O=C(NCc1ccns1)Nc1cccc(CN2CCCC2=O)c1" , the value recorded as its relative solubility at 20 uM is 1

Given item "CS(=O)(=O)NCCc1cccc(O)c1" , the value recorded as its relative solubility at 20 uM is 1

Given item C=CC(=O)N(c1ccc(C(C)(C)C)cc1)C(C(=O)N[C@H]1CC[C@@H](C(=O)OC)C1)c1cccnc1 (stereo in doubt) , the value recorded as its relative solubility at 20 uM is 1

Given item C=C(CN(C)C)C(=O)N1Cc2ccccc2C(c2ccccc2)C1 (stereo not given) , the value recorded as its relative solubility at 20 uM is 1

Given item C/C=C/C(=O)Nc1cccc(OC2CC(=O)N2)c1 (stereo not given) , the value recorded as its relative solubility at 20 uM is 1

Given item "Cc1ccc(NC(=O)Cc2cccc(Cl)c2)cn1" , the value recorded as its relative solubility at 20 uM is 0.99

Given item "O=C(NCc1cnccn1)c1sc2cccc(F)c2c1COc1ccccc1" , the value recorded as its relative solubility at 20 uM is 0.95

----------
Answer each item with its documented relative solubility at 100 uM.
settings: 100.0 µM
The reply should be a number, written without any unit.

Given item "Cc1ccncc1NC(=O)CCc1ccn[nH]1" , the value recorded as its relative solubility at 100 uM is 1

Given item Cc1ccncc1NC(=O)C(C)Cc1ccccc1 (stereo unspecified) , the value recorded as its relative solubility at 100 uM is 1

Given item "Cc1ccncc1NC(=O)Cc1ccc2[nH]ccc2c1" , the value recorded as its relative solubility at 100 uM is 1

Given item "O=C(CCNC(=O)c1c[nH]c2ccccc12)Nc1ccc(-n2cnc3ccccc32)cc1" , the value recorded as its relative solubility at 100 uM is 0.54

Given item C=CC(=O)N(C1CCC2(CCCC2)CC1)C(C(=O)NC(C)(C)C)c1cccnc1 (stereo unspecified) , the value recorded as its relative solubility at 100 uM is 0.97

Given item "O=C1C(=O)N(Cc2ccc(Br)cc2)c2ccccc21" , the value recorded as its relative solubility at 100 uM is 0.9

----------
settings: 20.0 µM
Answer each item with its documented relative solubility at 20 uM.
The reply should be a number, written without any unit.

Given item "N#Cc1cncc(NC(=O)Nc2cccnc2)c1" , the value recorded as its relative solubility at 20 uM is 1

Given item "O=C(NCc1noc2ccccc12)c1ccccc1OCC1CC1" , the value recorded as its relative solubility at 20 uM is 1

Given item O=C(NCC(O)Cn1ccnn1)c1ccccc1OC1CCC1 (stereo unspecified) , the value recorded as its relative solubility at 20 uM is 1

Given item "Cc1[nH]c2ccccc2c1/C=N/N(C)C(=O)c1ccc2c(c1)OCO2" , the value recorded as its relative solubility at 20 uM is 0.78

Given item "Cc1ccncc1NC(=O)Cc1cncc(Cl)c1" , the value recorded as its relative solubility at 20 uM is 1

Given item "CS(=O)(=O)Cc1ccc(C(=O)Nc2cccnc2)o1" , the value recorded as its relative solubility at 20 uM is 1
